Origin of measurements: patent US7407775B2

Test system: Listeria monocytogenes ATCC 19117
Test: Experiment 2: octanoate esterase substrates with different Indoxyl-based chromogenic markers
Assay type: cell-based
Settings: IT 48 h, 37° C., substrate 250 mg/l
measured endpoint: C (color of the colonies)

CCCCCCCC(=O)Oc1c[nH]c2cc(Cl)ccc12 [Pink-C8, 6-Chloro-3-indolyl octanoate] : pink
CCCCCCCC(=O)Oc1c[nH]c2ccc(Br)cc12 [Blue-C8, 5-Bromo-3-indolyl octanoate] : gray

* * *

Below, each entry is listed with its recorded I (intensity of the color).
Test system: Listeria ivanovii 018
Assay: Experiment 3: detecting an esterase activity in liquid medium (API-type strips)
Format: cell-based
Design: key: —: the symbol “-” corresponds to the absence of color or intensity; 0 corresponds to no activity; 0.1 corresponds to a trace of color; 0.5 corresponds to very pale coloration; 1 corresponds to clear but low-intensity coloration; 1.5 corresponds to a degree of coloration intermediate between scores 1 and 2; 2 corresponds to clear coloration of moderate intensity; 2.5 corresponds to a degree of coloration intermediate between scores 2 and 3; 3 corresponds to intense coloration; 3.5 corresponds to a degree of coloration intermediate between scores 3 and 4; 4 corresponds to very intense coloration
Details: IT 6 h, 37° C.
I'd appreciate a reply containing only the number, no unit.

A selection of reference data follows.
CC(=O)Oc1c[nH]c2ccc(Br)c(Cl)c12 [X-C2, 5-Bromo-4-chloro-3-indolyl acetate] : 3
CC(=O)Oc1c[nH]c2ccccc12 [Y-C2, 3-Indolyl acetate] : 4

Now take the following compound into account.
[ask] // fetch Listeria ivanovii 018 I (intensity of the color) for CCCC(=O)Oc1c[nH]c2ccc(Br)c(Cl)c12 [X-C4, 5-Bromo-4-chloro-3-indolyl butyrate]
[reply] 1

* * *

System: Listeria monocytogenes 092
Assay: Experiment 2: octanoate esterase substrates with different Indoxyl-based chromogenic markers
Type: cell-based
Settings: IT 24 h, 37° C., substrate 250 mg/l
measured endpoint: C (color of the colonies)

CCCCCCCC(=O)Oc1c[nH]c2cc(Cl)ccc12 [Pink-C8, 6-Chloro-3-indolyl octanoate] : pink
CCCCCCCC(=O)Oc1c[nH]c2ccc(Br)cc12 [Blue-C8, 5-Bromo-3-indolyl octanoate] : gray

* * *

System: Listeria monocytogenes ATCC 19117
Assay: Experiment 2: octanoate esterase substrates with different Indoxyl-based chromogenic markers
Assay type: cell-based
Settings: IT 24 h, 37° C., substrate 250 mg/l
Experimental: In Table 1 above, as in the following Tables, C represents the color of the colonies after incubation, I represents the intensity of the color, and the symbol “-” corresponds to the absence of color or intensity; finally, IT defines the incubation time. It should be noted that the intensity of the color is scored on an arbitrary scale but one which is consistent for all the biological specimens and media tested. This scale is valid for this experiment as well as all those that follow. […]
measured endpoint: C (color of the colonies)

CCCCCCCC(=O)Oc1c[nH]c2cc(Cl)ccc12 [Pink-C8, 6-Chloro-3-indolyl octanoate] : pink
CCCCCCCC(=O)Oc1c[nH]c2ccc(Br)cc12 [Blue-C8, 5-Bromo-3-indolyl octanoate] : gray

* * *

System: Listeria monocytogenes 092
Test: Experiment 3: detecting an esterase activity in liquid medium (API-type strips)
Assay type: cell-based
Parameters: key: —: the symbol “-” corresponds to the absence of color or intensity; 0 corresponds to no activity; 0.1 corresponds to a trace of color; 0.5 corresponds to very pale coloration; 1 corresponds to clear but low-intensity coloration; 1.5 corresponds to a degree of coloration intermediate between scores 1 and 2; 2 corresponds to clear coloration of moderate intensity; 2.5 corresponds to a degree of coloration intermediate between scores 2 and 3; 3 corresponds to intense coloration; 3.5 corresponds to a degree of coloration intermediate between scores 3 and 4; 4 corresponds to very intense coloration
Details: IT 4 h, 37° C.
Below, each entry is listed with its recorded I (intensity of the color).
I'd appreciate a reply containing only the number, no unit.

A selection of reference data follows.
CC(=O)Oc1c[nH]c2ccc(Br)c(Cl)c12 [X-C2, 5-Bromo-4-chloro-3-indolyl acetate] : 3
CC(=O)Oc1c[nH]c2ccccc12 [Y-C2, 3-Indolyl acetate] : 4

Now take the following molecule into account.
[ask] I'd like to know its I (intensity of the color). The molecule in question is CCCC(=O)Oc1c[nH]c2ccc(Br)c(Cl)c12 [X-C4, 5-Bromo-4-chloro-3-indolyl butyrate]
[reply] 2
